Parameter hepatocyte CLint at 1 µM: see the listing below.
Assay: Metabolic stability in human hepatocytes assessed as intrinsic clearance at 1 uM measured per 10^6 cells incubated at 2 to 60 mins by LC-MS/MS analysis
Type: ADME, cell-based, Hepatocyte
Details: time 2-60 min, read-out: CLH

[
  {
    "COMPOUND_SMILES": "FC(F)c1nnc(-c2ccc(Cn3nnc(-c4ccccn4)n3)nc2)o1",
    "VALUE_COMPARATOR": "<",
    "hepatocyte CLint at 1 µM [µL/min/1e6 cells]": 1
  },
  {
    "COMPOUND_SMILES": "O=C(NO)c1cnc(NC2(c3ccccc3)CCC(F)(F)CC2)nc1",
    "VALUE_COMPARATOR": "=",
    "hepatocyte CLint at 1 µM [µL/min/1e6 cells]": 5.1
  }
]

###

Assay: Oral bioavailability in C57/BI mouse at 10 mg/kg measured upto 24 hrs by LC-MS/MS analysis
Assay type: ADME, organism-based
Conditions: in vivo

[
  {
    "COMPOUND_SMILES": "O=C(NO)c1cnc(NC2(c3ccccc3)CCC(F)(F)CC2)nc1",
    "bioavailability": "12%"
  }
]

###

Assay: Half life in Wistar Han rat at 1 mg/kg, po measured upto 24 hrs by LC-MS/MS analysis
Type: ADME, organism-based
Conditions: in vivo

[
  {
    "COMPOUND_SMILES": "FC(F)c1nnc(-c2ccc(Cn3nnc(-c4ccccn4)n3)nc2)o1",
    "U": "min",
    "half-life": 600
  }
]

###

Assay: Metabolic stability in mouse hepatocytes assessed as intrinsic clearance at 1 uM measured per 10^6 cells incubated at 2 to 60 mins by LC-MS/MS analysis
Format: ADME, cell-based, Hepatocyte
Conditions: time 2-60 min, read-out: CLH
Parameter hepatocyte CLint at 1 µM: see the listing below.
QUANTITY: hepatocyte CLint at 1 µM (µL/min/1e6 cells)

[
  {
    "COMPOUND_SMILES": "O=C(NO)c1cnc(NC2(c3ccccc3)CCC(F)(F)CC2)nc1",
    "QUANTITY": "hepatocyte CLint at 1 µM",
    "VALUE_COMPARATOR": "=",
    "RECORDED_VALUE": 130
  },
  {
    "COMPOUND_SMILES": "FC(F)c1nnc(-c2ccc(Cn3nnc(-c4ccccn4)n3)nc2)o1",
    "QUANTITY": "hepatocyte CLint at 1 µM",
    "VALUE_COMPARATOR": "<",
    "RECORDED_VALUE": 1
  }
]

###

Assay: Half life in C57/BI mouse at 10 mg/kg, po measured upto 24 hrs by LC-MS/MS analysis
Type: ADME, organism-based
Details: in vivo
QUANTITY: half-life

[
  {
    "COMPOUND_SMILES": "O=C(NO)c1cnc(NC2(c3ccccc3)CCC(F)(F)CC2)nc1",
    "RECORDED_VALUE": "1.7 h"
  }
]

###

Target: Protein deacetylase HDAC6 (Homo sapiens, UniProt Q9UBN7)
Sequence (Q9UBN7 whole entry): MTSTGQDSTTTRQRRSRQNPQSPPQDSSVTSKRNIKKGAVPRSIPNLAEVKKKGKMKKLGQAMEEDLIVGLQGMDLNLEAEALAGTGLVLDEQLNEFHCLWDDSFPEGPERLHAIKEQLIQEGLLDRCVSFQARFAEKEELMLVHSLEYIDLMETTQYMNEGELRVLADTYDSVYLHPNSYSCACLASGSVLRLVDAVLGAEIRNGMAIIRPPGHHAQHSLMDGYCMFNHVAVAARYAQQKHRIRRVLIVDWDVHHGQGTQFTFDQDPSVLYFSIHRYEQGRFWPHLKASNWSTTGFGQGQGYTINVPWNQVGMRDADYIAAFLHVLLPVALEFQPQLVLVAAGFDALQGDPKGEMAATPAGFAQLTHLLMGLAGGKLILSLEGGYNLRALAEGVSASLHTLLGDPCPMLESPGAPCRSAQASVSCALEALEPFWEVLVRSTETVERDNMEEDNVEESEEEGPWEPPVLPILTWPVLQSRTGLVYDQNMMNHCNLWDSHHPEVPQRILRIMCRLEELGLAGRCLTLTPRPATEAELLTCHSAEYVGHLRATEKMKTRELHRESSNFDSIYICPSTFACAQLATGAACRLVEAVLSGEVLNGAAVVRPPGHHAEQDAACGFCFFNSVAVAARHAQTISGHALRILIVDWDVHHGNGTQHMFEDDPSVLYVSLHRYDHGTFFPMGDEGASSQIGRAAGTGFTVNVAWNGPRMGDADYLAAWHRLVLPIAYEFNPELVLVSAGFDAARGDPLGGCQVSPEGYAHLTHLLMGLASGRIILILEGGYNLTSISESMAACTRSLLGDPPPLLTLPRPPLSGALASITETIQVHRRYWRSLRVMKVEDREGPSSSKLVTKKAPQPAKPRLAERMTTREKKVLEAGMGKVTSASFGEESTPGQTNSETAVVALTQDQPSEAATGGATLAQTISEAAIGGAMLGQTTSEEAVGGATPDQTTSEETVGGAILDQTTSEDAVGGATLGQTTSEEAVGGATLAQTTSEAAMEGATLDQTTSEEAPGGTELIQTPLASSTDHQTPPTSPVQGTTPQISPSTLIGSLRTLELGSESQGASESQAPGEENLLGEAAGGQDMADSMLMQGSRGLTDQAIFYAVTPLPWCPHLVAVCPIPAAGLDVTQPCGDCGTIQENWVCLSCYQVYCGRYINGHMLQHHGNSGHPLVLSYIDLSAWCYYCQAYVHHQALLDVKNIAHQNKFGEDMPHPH
Test: Inhibition of HDAC6 (unknown origin) incubated for 20 hrs
QUANTITY: IC50 (nM)

[
  {
    "COMPOUND_SMILES": "FC(F)c1nnc(-c2ccc(Cn3nnc(-c4ccccn4)n3)nc2)o1",
    "QUANTITY": "IC50",
    "U": "nM",
    "RECORDED_VALUE": 1
  }
]
